All figures here come from patent US12410208B2.

Record form. Attribute: IC50. Fill in for each entry.
Biological target: biotinylated human Gal-3 (hGal-3) (Homo sapiens, UniProt P17931)
Sequence (P17931 whole entry): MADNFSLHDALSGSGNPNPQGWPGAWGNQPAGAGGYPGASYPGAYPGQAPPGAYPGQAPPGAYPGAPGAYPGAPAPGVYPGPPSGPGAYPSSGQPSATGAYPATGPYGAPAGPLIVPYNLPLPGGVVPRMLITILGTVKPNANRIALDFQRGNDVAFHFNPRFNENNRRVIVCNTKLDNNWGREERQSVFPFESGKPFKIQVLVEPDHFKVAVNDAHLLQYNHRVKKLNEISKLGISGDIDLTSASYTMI
Test: Competitive binding assay: biotinylated hGal-3 binding to microplate-adsorbed asialofetuin (ASF), spectrophotometric
Settings: Gal-3 inhibition, Table 5; read-out: IC50
Procedure: If not explicitly mentioned otherwise, the inhibition data refer to the binding of biotinylated human Gal-3 (hGal-3). Biological Assay Evaluation of Compound Inhibitory Activity (IC50) The inhibitory activity of compounds is determined in competitive binding assays. Briefly, compounds are serially diluted in DMSO (working dilutions). […] The calculated IC50 values may fluctuate depending on the daily assay performance. […]
I only need the number, in nM, no unit after it.

For record CN(CC(C)(C)F)C(=O)[C@@H](S[C@@H]1O[C@H](CO)[C@H](O)[C@H](n2cc(-c3cc(F)c(F)c(F)c3)nn2)[C@H]1O)C1(O)CCCCC1 [Example 2.39.222S.] the listed IC50 is 20

Recorded IC50 (compound CCN(C)C(=O)C(S[C@@H]1O[C@H](CO)[C@H](O)[C@H](n2cc(-c3cc(F)c(F)c(F)c3)nn2)[C@H]1O)C1(O)CCOCC1 (some centres unmarked) [Example 2.41.203.] ): 90

compound CN(CC(F)(F)F)C(=O)[C@@H](S[C@@H]1O[C@H](CO)[C@H](O)[C@H](n2cc(-c3cc(F)c(F)c(F)c3)nn2)[C@H]1O)C1(O)CCCCC1 [Example 2.39.219S.] , IC50 observed: 60

For reference, reported IC50 for CN(CC1(F)CCCC1)C(=O)[C@@H](S[C@@H]1O[C@H](CO)[C@H](O)[C@H](n2cc(-c3cc(F)c(F)c(F)c3)nn2)[C@H]1O)C1(O)CCC(F)(F)CC1 [Example 2.44.223S.] stands at 70

Briefly, IC50 measured for CCN(C)C(=O)[C@H](S[C@@H]1O[C@H](CO)[C@H](O)[C@H](n2cc(-c3cc(F)c(F)c(F)c3)nn2)[C@H]1O)C1(O)CCOCC1 [Example 2.41.203R.] : 4430

Field IC50 (entry CN(CC1CC1)C(=O)[C@H](S[C@@H]1O[C@H](CO)[C@H](O)[C@H](n2cc(-c3cc(F)c(F)c(F)c3)nn2)[C@H]1O)C1(O)CCC(F)(F)CC1 [Example 2.44.218R.] ) reads 1150

// field: IC50; key: CN(CC1CC1)C(=O)[C@H](S[C@@H]1O[C@H](CO)[C@H](O)[C@H](n2cc(-c3cc(F)c(F)c(F)c3)nn2)[C@H]1O)C1(O)CC(F)(F)C1 [Example 2.33.218R.] ; value = 440

Quick note, IC50 for CN(C(=O)C(S[C@@H]1O[C@H](CO)[C@H](O)[C@H](n2cc(-c3cc(F)c(F)c(F)c3)nn2)[C@H]1O)C1(O)CCOCC1)C1COC1 (some centres unmarked) [Example 2.41.235.] landed at 60

What the record says about O=C(C(S[C@@H]1O[C@H](CO)[C@H](O)[C@H](n2cc(-c3cc(F)c(F)c(F)c3)nn2)[C@H]1O)C1(O)CC(F)(F)C1)N1CCC1 (some centres unmarked) [Example 2.33.206.] : IC50 is 580

Consider CN(CC(C)(C)F)C(=O)[C@@H](S[C@@H]1O[C@H](CO)[C@H](O)[C@H](n2cc(-c3cc(F)c(F)c(F)c3)nn2)[C@H]1O)C1(O)CCC1 [Example 2.34.222S.] . Its measured IC50 is 90

Lab note: measured IC50 of CN(CC1CC1)C(=O)[C@H](S[C@@H]1O[C@H](CO)[C@H](O)[C@H](n2cc(-c3cc(F)c(F)c(F)c3)nn2)[C@H]1O)C1(O)CCC1 [Example 2.34.218R.] was 6080
